- Test system: polyoma virus transformed BHK21/c13 cells, line S100T1
- Assay protocol: Collocation inhibition test: clonal growth in sparsely and densely seeded areas of a cell density gradient of S100T1 cells in soft agar (Exp 13, 17, 19-26)
- Condition context: Experiment 22; L: area with low cell density; Low concentration
Experimental endpoint: Clonal growth

• O=C1N(c2ccccc2)N(c2ccccc2)C(=O)C1(O)CC[S+]([O-])c1ccccc1 (stereo not shown) = ++
• CCCCC1(O)C(=O)N(c2ccccc2)N(c2ccc(OC)cc2)C1=O (stereo not shown) = ++
• CCCCC(C(=O)Nc1ccccc1)C(=O)Nc1ccc(O)cc1 (stereo not shown) = ++
• CCCCC1(O)C(=O)N(c2ccccc2)N(c2ccc(O)cc2)C1=O (stereo not shown) = −

* * *

- Test system: polyoma virus transformed BHK21/c13 cells, line S100T1
- Assay protocol: Collocation inhibition test: clonal growth in sparsely and densely seeded areas of a cell density gradient of S100T1 cells in soft agar (Exp 13, 17, 19-26)
- Condition context: Exp 17; a: close to densely seeded cell areas; Low: Colchicine 0.1, Podophyllotoxin 0.3, Etoposide 20, 4-OH—OPB 0.67 μM in wells, DMSO 1.16 μl
Experimental endpoint: Clonal growth, results read on the day 14

Some molecules with known Clonal growth, results read on the day 14 results, for comparison:
- COc1cc2c(c(OC)c1OC)-c1ccc(OC)c(=O)cc1[C@@H](NC(C)=O)CC2 [Colchicine, reference compound]: ++
- COc1cc([C@@H]2c3cc4c(cc3[C@@H](O[C@@H]3O[C@@H]5CO[C@@H](C)O[C@H]5[C@H](O)[C@H]3O)[C@H]3COC(=O)[C@H]23)OCO4)cc(OC)c1O [Etoposide, reference compound]: +
- C[S+](C)[O-]: ++
- CCCCC1(O)C(=O)N(c2ccccc2)N(c2ccc(O)cc2)C1=O (centres unmarked): ++

Could you now consider this next molecule?
Sure, the documented Clonal growth, results read on the day 14 for COc1cc([C@@H]2c3cc4c(cc3[C@H](O)[C@H]3COC(=O)[C@H]23)OCO4)cc(OC)c1OC is (+

* * *

- System: polyoma virus transformed BHK21/c13 cells, line S100T1
- Assay protocol: Collocation inhibition test: clonal growth in sparsely and densely seeded areas of a cell density gradient of S100T1 cells in soft agar (Exp 13, 17, 19-26);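 also: soft agar cultures in 24-well plates with a cell density gradient in the top layer, compounds applied from DMSO stocks, clonal growth scored in sparse versus dense areas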
- Condition context: Summary Table 3 of analogue tests (experiments 22-25); H (high cell density); High concentration
Experimental endpoint: Clonal growth

Below are worked cases with known answers.
* CCCCC(=O)C(=O)Nc1ccccc1 [#3, 2-oxo-hexanoic acid phenylamide] | ++
* O=C1N(c2ccccc2)N(c2ccccc2)C(=O)C1(O)CC[S+]([O-])c1ccccc1 (stereo not drawn) | ++
* CCCCC1(O)C(=O)N(c2ccccc2)N(c2ccccc2)C1=O | ++(+)
* CCCCC(O)(C(=O)Nc1ccccc1)C(=O)Nc1ccc(O)cc1 (stereo not drawn) | ++
* Oc1ccc(N=Nc2ccccc2)cc1 [#1, p-hydroxy-azobenzene] | +(+)
* CCCCC1(O)C(=O)N(c2ccccc2)N(c2ccc(OC)cc2)C1=O (stereo not drawn) | ++
* CCCCC(C(=O)Nc1ccccc1)C(=O)Nc1ccc(O)cc1 (stereo not drawn) | ++
* Cc1ccc(C2(O)C(=O)N(c3ccccc3)N(c3ccccc3)C2=O)cc1 | ++

Continue with the next compound.
Looking up O=C1N(c2ccccc2)N(c2ccccc2)C(=O)C1(O)Cc1ccccc1 , I see its Clonal growth listed as ++
